testSummary: in vitro
Assay type: cell-based
conditionDescription: human, 7-pt Assay; three days incubation
parameterMeasured: CC50 at 3 days

Recorded CC50 at 3 days, per entry:
COC(=O)c1ccc(NC(=O)[C@H](CC(C)C)NC(=O)[C@@H](CC(=O)NO)c2ccccc2)cc1    > 320 µM
O=C(NO)[C@@H]1CCCC[C@@H]1SCCc1ccccc1    ≥ 320 µM

# next molecule below
Find the recorded CC50 at 3 days belonging to O=C(NO)[C@@H]1CCCC[C@H]1S(=O)(=O)CCc1ccccc1 and report it.
> 320 µM
